Target: T1, monomeric human CD19 antigen Fc(kih) fusion molecule (human, UniProt P0DOX5 223-449 = IgG part)
T1 construct: also called monomeric CD19-Fc; human CD19-Fc(kih)
Experiment: SPR ProteOn XPR36, IgG from HEK supernatant captured via anti-human Fab, monomeric CD19-Fc analyte, 1:1 Langmuir
Readout Type: Kd
Don't forget the unit after the value.

Field request: Kd | item: anti-CD19 clone 8B8 (parental) in P329GLALA human IgG1 format (antibody, V domains shown, also called Parental 8B8) VH: EVQLQQSGPELVKPGASVKMACKASGYTFTDYIMHWVKQKTGQGLEWIGYINPYNDGSKYTEKFNGKATLTSDKSSITAYMELSSLTSEDSAVYYCARGTYYYGSALFDYWGQGTTLTVSS VL: DAVMTQTPLSLPVSLGDQASISCRSSQSLENSNGNTYLNWYLQKPGQSPQLLIYRVSKRFSGVLDRFSGSGSGTDFTLKISRVEAEDLGVYFCLQLTHVPYTFGGGTKLEIKR
2.36 nM

Field request: Kd | item: anti-CD19 clone 8B8-2B03 in P329GLALA human IgG1 format (antibody, V domains shown, light chain holds an X) VH: QVQLVQSGAEVKKPGASVKVSCKASGYTFTDYITHWVRQAPGQGLEWMGYINPYNDGSKYTEKFQGRVTMTSDTSISTAYMELSRLRSDDTAVYYCARGTYYYGPDLFDYWGQGTTVTVSS VL: DIVMTQTPLSLSVTPGQPASISCKSSQSLETSTGNTYLNWYLQKPGQSPQLLIYRVSKRFSGVPDRFSGSGSGTDFTLKISRVEAEDVGVYYCLQLTHVPYTFGQGTKLEIKR
0.831 nM

Field request: Kd | item: anti-CD19 clone 8B8-5A07 in P329GLALA human IgG1 format (antibody, V domains shown) VH: QVQLVQSGAEVKKPGASVKVSCKASGYTFTDYIMHWVRQAPGQGLEWMGYINPYNDGSKYTEKFQGRVTMTSDTSISTAYMELSRLRSDDTAVYYCARGTYYYGSALFDYWGQGTTVTVSS VL: DIVMTQTPLSLSVTPGQPASISCKSSQSLETSTGNTYLNWYLQKPGQSPQLLIYRVSKRFSGVPDRFSGSGSGTDFTLKISRVEAEDVGVYYCLQPGHYPGTFGQGTKLEIKR
0.44 nM

All values here come from patent US20250101135A1.
